- system_name: SpPex13
- procedure_summary: SPOT peptide array binding signal intensity (averaged, normalized) (arbitrary units (background-subtracted, floor 0; scale differs between SH3 domains)); higher = stronger binding of the SH3 domain to the peptide
assay_metric: SPOT peptide array binding signal intensity

The examples below pair each entry with its known result.
# binder, result
data = [
    ("TTAPALPSLPPPPLL", 11),
    ("FPPKRKPLLRPQRSD", 26),
    ("PALPSLPPPPLLNVD", "≤ 0"),
]

Indicate the recorded SPOT peptide array binding signal intensity value for this binder: `LFMKGTPEFPKSGFS`
28
